biological target: human PDHK2 (12-407) (Homo sapiens)
This section presents molecules with their documented Kd values.

Solved cases (3 shown):
Reported Kd for "CC(C)(C)c1ccc(-n2nccc2C2CCN(C(=O)[C@@](C)(O)C(F)(F)F)CC2)cc1" was < 300 nM

Reported Kd for "C[C@@](O)(C(=O)N1CCC(c2conc2-c2ccc(F)cc2)CC1)C(F)(F)F" was < 300 nM

Reported Kd for "Cc1ccc(-n2nncc2C2CCN(C(=O)[C@@](C)(O)C(F)(F)F)CC2)c(F)c1" was 300 to 3000 nM

More entries:
Reported Kd for "C[C@@](O)(C(=O)N1CCC(c2ccnn2Cc2ccccc2)CC1)C(F)(F)F" was < 300 nM

Reported Kd for "C[C@@](O)(C(=O)N1CCC(c2ccnn2-c2ncc(Br)cn2)CC1)C(F)(F)F" was < 300 nM

Reported Kd for "C[C@@](O)(C(=O)N1CCC(c2cc(C(F)(F)F)nn2-c2ccc(F)cc2)CC1)C(F)(F)F" was < 300 nM

Reported Kd for "C[C@@](O)(C(=O)N1CCC(c2ccnn2CC(F)(F)F)CC1)C(F)(F)F" was 300 to 3000 nM

Reported Kd for "CC(C)c1ccc(-n2nccc2C2CCN(C(=O)[C@@](C)(O)C(F)(F)F)CC2)cc1" was < 300 nM

Reported Kd for "C[C@@](O)(C(=O)N1CCC(c2ccnn2-c2ccc(F)cc2F)CC1)C(F)(F)F" was < 300 nM

Reported Kd for "Cc1ccc(-n2nccc2C2CCN(C(=O)[C@@](C)(O)C(F)(F)F)CC2)nc1" was < 300 nM

Reported Kd for "C[C@@](O)(C(=O)N1CCC(c2cc(C(F)(F)F)nn2-c2ccc(Cl)cc2)CC1)C(F)(F)F" was < 300 nM

Reported Kd for "Cc1ccc(-n2nccc2C2CCN(C(=O)[C@@](C)(O)C(F)(F)F)CC2)c(F)c1" was < 300 nM

Reported Kd for "C[C@@H]1CN(C(=O)[C@@](C)(O)C(F)(F)F)CC[C@@H]1c1ccnn1-c1ccccc1" was < 300 nM

Reported Kd for CC1CN(C(=O)[C@@](C)(O)C(F)(F)F)CCC1c1ccnn1-c1ccc(F)cc1F (mixture of isomers) was < 300 nM

Reported Kd for "C[C@@](O)(C(=O)N1CCC(n2cnnc2-c2ccc(Cl)cc2)CC1)C(F)(F)F" was 300 to 3000 nM

Reported Kd for "C[C@@H]1CN(C(=O)[C@@](C)(O)C(F)(F)F)CC[C@@H]1c1ccnn1-c1ccc(F)cc1" was < 300 nM

Reported Kd for "C[C@@](O)(C(=O)N1CCC(c2ccnn2-c2ccc(OC(F)F)cc2)CC1)C(F)(F)F" was < 300 nM

Reported Kd for "C[C@@](O)(C(=O)N1CCC(n2cnnc2-c2ccccc2F)CC1)C(F)(F)F" was 300 to 3000 nM

Reported Kd for "C[C@@](O)(C(=O)N1CCC(c2ccnn2-c2cccc(Cl)c2)CC1)C(F)(F)F" was < 300 nM

Reported Kd for "C[C@@](O)(C(=O)N1CCC(c2cncn2-c2ccc(F)cc2F)CC1)C(F)(F)F" was < 300 nM

Reported Kd for "COc1ccc(-n2nccc2C2CCN(C(=O)[C@@](C)(O)C(F)(F)F)CC2)cc1" was < 300 nM

Reported Kd for "COc1ccc(-n2nccc2[C@H]2CCN(C(=O)[C@@](C)(O)C(F)(F)F)C[C@H]2C)cc1" was < 300 nM

Reported Kd for "C[C@@](O)(C(=O)N1CCC(n2cncc2-c2ccccc2)CC1)C(F)(F)F" was < 300 nM

Reported Kd for "C[C@@](O)(C(=O)N1CCC(c2ccnn2C2CCOCC2)CC1)C(F)(F)F" was 300 to 3000 nM

Reported Kd for "C[C@@](O)(C(=O)N1CCC(c2ccnn2C2CC2)CC1)C(F)(F)F" was < 300 nM
